- Test system: EPHA8
- MEASUREMENT_PARAMETERS: concentration: 1 μM, replicates: in singlicate; n = 1;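 also: KINOMEscan kinase panel screen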
Mark true (1) for %Inh under 10%, false (0) if at or over.

Some solved entries appear below for comparison.
MOLECULE: COc1ccc(Nc2nccc(N3CCC(NC(=O)Nc4cc(C)ccc4C)C3)n2)cc1 (stereo not shown)
ASSIGNED_CATEGORY: true (1)
--
MOLECULE: O=c1cc(N2CCOCC2)nc2n(Cc3cccc(Cl)c3Cl)c(C3CC3)nn12
ASSIGNED_CATEGORY: true (1)
--
MOLECULE: Cc1nnc(-c2ccc3ncc(-c4ccc(S(C)=O)cc4)n3c2)o1 (stereo not shown)
ASSIGNED_CATEGORY: true (1)
--
MOLECULE: Cc1cccc(-c2nc(-c3ccc(S(C)(=O)=O)cc3)sc2-c2ccncc2)c1
ASSIGNED_CATEGORY: false (0)
--
MOLECULE: Cn1ccc2ncnc(Oc3ccc(NC(=O)Nc4ccncc4)c(Cl)c3)c21
ASSIGNED_CATEGORY: true (1)

Task: Quick check: %Inh of O=C(Nc1cccc(-c2nn3ncccc3c2-c2ccnc(Nc3cccc(C(F)(F)F)c3)n2)c1)c1c(F)cccc1F under 10%?
Result: false (0)

Task: API: query returns whether the molecule falls strictly under 10% in %Inh. Query: O=C(c1ccc(-c2cc(-c3c[nH]nc3-c3ccccn3)ccn2)cc1)N1CCOCC1
Result: true (1)

Task: Could you please tell me whether %Inh recorded for NCC(NC(=O)c1cc(-c2cn[nH]c2)c(-c2ccnc3[nH]ccc23)s1)c1ccccc1.O=C(O)C(F)(F)F.O=C(O)C(F)(F)F (stereo not shown) is less than 10%?
Result: true (1)

Task: Could you please tell me whether %Inh recorded for NS(=O)(=O)CCc1cccc(Nc2nccc(-c3c(-c4cccc(NC(=O)c5c(F)cccc5F)c4)nn4ccccc34)n2)c1 is less than 10%?
Result: false (0)

Task: # check: %Inh < 10% for Cc1ccc(C(=O)NCC(N)=O)cc1-n1c(C)cc(OCc2ccc(F)cc2F)c(Br)c1=O
Result: false (0)

Task: In the record for Nc1nc(-c2ccc3c(N)n[nH]c3c2)cc(N2CCCC2)n1 , is %Inh less than 10%?
Result: true (1)

Task: Below 10% on %Inh? Entry CN1c2ccc(NCc3ccc(F)cc3)cc2-c2c(cnn2C)S1(=O)=O
Result: true (1)

Task: Input COC(=O)Nc1nc2cc(Oc3ccc(NC(=O)Nc4cc(F)ccc4F)cc3)ccc2[nH]1.Cl ; condition: %Inh strictly below 10%. Does it hold?
Result: false (0)

----------
- System: CSNK1G1
- MEASUREMENT_PARAMETERS: concentration: 1 μM, replicates: in singlicate; n = 1
Please respond with reported %Inh for every item in the list.
One number for each entry, in %.

Please review the entries below; each comes with its answer.
COMPOUND: Cc1nnc(-c2ccc(C)c(-c3ccc(C(=O)Nc4ccc(NS(C)(=O)=O)cc4)cc3)c2)o1
%Inh (%): 0
--
COMPOUND: O=c1cc(N2CCOCC2)nc2n(Cc3cccc(Cl)c3Cl)c(C3CC3)nn12
%Inh (%): 0
--
COMPOUND: Fc1ccc(-c2ncn(CCCN3CCOCC3)c2-c2cccnc2)cc1
%Inh (%): 0
--
COMPOUND: Cn1ccc2ncnc(Oc3ccc(NC(=O)Nc4ccncc4)c(Cl)c3)c21
%Inh (%): 0
--
COMPOUND: C[C@@H](Oc1cc(-n2cnc3ccc(NC(=O)NC(C)(C)C)cc32)sc1C(N)=O)c1ccccc1Cl
%Inh (%): 0
--
COMPOUND: CC(=O)Nc1ccc(COc2ccc(Nc3ccnc4cc(-c5ccccn5)ccc34)cc2)cc1.Cl
%Inh (%): 9
--
COMPOUND: O=C(NCCNc1ccnc(Nc2ccc(F)cc2)n1)Nc1ccccc1F
%Inh (%): 1
--
COMPOUND: COC(=O)Nc1nc2cc(Oc3ccc(NC(=O)Nc4cc(F)ccc4F)cc3)ccc2[nH]1.Cl
%Inh (%): 0
--
COMPOUND: COc1ccc(CNC(=O)NC2CCN(c3ccnc(Nc4ccc(OC)cc4)n3)C2)cc1 (stereo not drawn)
%Inh (%): 0
--
COMPOUND: CCCCCc1nc2c(N)ncnc2n1CCCCC
%Inh (%): 0

Provide %Inh values for the following items, in order.
1. Cc1ccc(NC(=O)c2ccnc(N3CCN(C)CC3)c2)cc1-c1ccc(C(=O)NCC2CC2)cc1
2. O=C(Nc1cccc(-c2nn3ncccc3c2-c2ccnc(Nc3cccc(C(F)(F)F)c3)n2)c1)c1c(F)cccc1F
3. CSc1ccc(-c2cc3ncnc(SCC(=O)O)c3s2)cc1
4. CN(C(=O)c1ccc(-c2cc(-c3c[nH]nc3-c3ccccn3)ccn2)cc1)C1CCOCC1
5. Cc1cccc(-c2nc(Nc3ccc4ncsc4c3)c3ccccc3n2)n1
6. CC(C)(C)n1cnc2c(N)ncnc21
7. O=C(NCCNc1ccnc(Nc2ccc(F)cc2)n1)c1cc2ccccc2s1
8. O=C(NOCC1CC1)c1ccc(F)c(F)c1Nc1ccc(I)cc1Cl

Result:
[0, 0, 1, 5, 0, 0, 0, 0]
